Data origin, for the record: patent US20220354844A1

# Method description: Compound 1 single dose rat PK study
# Assay type: in vivo, male Sprague Dawley rats
# Condition context: male, Sprague Dawley, plasma, po, 5 mg/kg, single po dose 5 mg/kg, Mean of the 3 rats
Reported endpoint: MRT last (h)

Molecule | Reported endpoint | Unit name | Val
CC(=O)N1CCc2c(C(=O)N3CCC(c4ccc(F)c(F)c4C(F)(F)F)CC3)n[nH]c2C1 [Compound 1] | MRT last | h | 9

----------
# Method description: Compound 1 single dose non-human primate PK study
# Format: in vivo, Cynomolgus Macaques
# Condition context: cynomolgus monkey, plasma, po, 5 mg/kg, NHP, single po dose 5 mg/kg, individual animals

Line notation | AUC(0-t) [ng·h/mL]
CC(=O)N1CCc2c(C(=O)N3CCC(c4ccc(F)c(F)c4C(F)(F)F)CC3)n[nH]c2C1 | 4580
